Reference source: PubChem BioAssay (Tox21)

- TARGET DESC: Peroxisome proliferator-activated receptor delta (Homo sapiens)
- PROTOCOL SUMMARY: qHTS assay to identify small molecule agonists of the peroxisome proliferator-activated receptor delta (PPARd) signaling pathway (AID 743212);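 also: HEK293H cells with PPARd UAS beta-lactamase reporter GeneBLAzer system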
- CONDITION SUMMARY: HEK293H PPARd-UAS-bla, beta-lactamase FRET ratio, 17 h; series mostly up to 62.6 µM
Inconclusive results are not listed. Active and inactive are the calls of the source. Calls follow the shape of the full dose curve.
Answer with one of the outcomes active, inactive

What was the test verdict on `Oc1ccc2c(c1)-c1ccccc1C2` ?
inactive

What was the test verdict on `CC(C)(C)NC(=O)[C@@H]1C[C@@H]2CCCC[C@@H]2CN1C[C@@H](O)[C@H](Cc1ccccc1)NC(=O)[C@H](CC(N)=O)NC(=O)c1ccc2ccccc2n1` ?
inactive

What was the test verdict on `O=C1CCCc2c1cc1ccc3cccc4ccc2c1c34` ?
active

What was the test verdict on `O=C(O)c1ccc(Cl)c(Cl)c1` ?
inactive

----------
Reported Potency values are given for each entry in this list.
- PROTOCOL SUMMARY: qHTS assay to identify small molecule antagonists of the estrogen related receptor signaling pathway with the pleiotropic PPARgamma coactivator (PGC) from Tox21 10K library - cell viability counter screen (AID 1224840); also: potency is read from the fitted curve at half-maximal effect; nearly all actives have a fitted effect of over 40% in size
- CONDITION SUMMARY: PGC/ERR reporter cells viability, CellTiter-Fluor, 17.5 h; series mostly up to 92.4 µM
Results filed as inconclusive are left out. Active and inactive are the calls of the source. Calls come from the whole dose curve; as a rule, active = well fitted cell-killing curve with a large enough effect in the repeat runs (not every such curve was filed as active); inconclusive = weak or mixed curves, or effect the other way; inactive = no such curve, though single readings can be large or run the other way.

In the examples that follow, each entry is paired with its recorded Potency.
INSERT INTO measurements (structure_as_smiles, property, result) VALUES
  ('CC(C)(C)CC(C)(C)c1ccc(O)c(Cc2ccc(Cl)cc2Cl)c1', 'Potency', '29.8 µM (active)'),
  ('CCCC(c1cc(C(C)(C)C)c(O)cc1C)c1cc(C(C)(C)C)c(O)cc1C', 'Potency', '22 µM (active)'),
  ('CCN1/C(=C/C=C/c2sc3ccccc3[n+]2CC)Sc2ccccc21', 'Potency', '6.51 µM (active)');

API: the following record is the query input.
Short answer for `O=C(Nc1cccc([N+](=O)[O-])c1)c1cc2ccccc2cc1O` : Potency was 3.86 µM (active)

----------
- PROTOCOL SUMMARY: qHTS assay for small molecule disruptors of the mitochondrial membrane potential - cell viability (AID 720634); also: nearly all actives have a fitted effect of over 20% in size; also: potency is read from the fitted curve at half-maximal effect
- CONDITION SUMMARY: HepG2 viability, ATP luminescence (CellTiter-Glo), 1 h; series mostly up to 83.2 µM
Results filed as inconclusive are left out. Calls of active or inactive are those of the source. The call rests on the fitted dose curve.
PROPERTY: Potency

In the examples that follow, each entry is paired with its recorded Potency.
INSERT INTO measurements (compound, result) VALUES
  ('CC(C)n1nc(-c2cc3cc(O)ccc3[nH]2)c2c(N)ncnc21', 'inactive'),
  ('CCCCCCCC[P+](CCCCCCCC)(CCCCCCCC)CCCCCCCC', '21.6 µM (active)'),
  ('OC1(c2ccc(Cl)c(C(F)(F)F)c2)CCN(CCCC(c2ccc(F)cc2)c2ccc(F)cc2)CC1', 'inactive'),
  ('CCCCCCCCCCCCCCCC[N+](C)(C)CCN(Cc1ccc(OC)cc1)c1ncccn1', 'inactive'),
  ('CCCC(c1cc(C(C)(C)C)c(O)cc1C)c1cc(C(C)(C)C)c(O)cc1C', '39 µM (active)'),
  ('C[n+]1cc2c3c(ccc2c2ccc4cc5c(cc4c21)OCO5)OCO3', '11.9 µM (active)');

API: the following record is the query input.
Short answer for `CCOC(=O)/C=C(C)/C=C/C=C(C)/C=C/c1c(C)cc(OC)c(C)c1C` : Potency was inactive

----------
- PROTOCOL SUMMARY: qHTS assay to identify small molecule agonists of H2AX (AID 1224845)
- CONDITION SUMMARY: CHO-K1 phospho-H2AX Ser139 HTRF, 3 h; series mostly up to 154 µM
Inconclusive results are not listed. Active and inactive are the calls of the source. Calls follow the shape of the dose curve; as a rule, active = well fitted activation curve with a large enough effect in the signal ratio in the repeat runs (not every such curve was filed as active); inconclusive = weak or mixed curves; inactive = flat fitted curve, though single readings scatter; the % refers to the signal ratio.
Answer with one of the outcomes active, inactive

Record excerpt, results attached:
INSERT INTO assay_data (molecule, class_label) VALUES
  ('COc1ccc(C(=O)/C(Br)=C\C(=O)O)cc1', 'active'),
  ('C[C@]12CCC(=O)C=C1CC[C@@H]1[C@@H]2[C@@H](O)C[C@@]2(C)[C@H]1CC[C@]2(O)C(=O)COC(=O)CCC(=O)O', 'inactive'),
  ('CCC1OCC(COc2ccc(Oc3ccccc3)cc2)O1 (configuration not stated)', 'inactive'),
  ('CCCCCCCCCCCCCCCS(=O)(=O)Oc1ccccc1', 'inactive'),
  ('CCOC(=O)O[C@H](C)OC(=O)c1ccc2c(c1)cc(C(=O)NC1CCN(C(C)C)CC1)n2Cc1cc(-c2ccc(Cl)s2)on1', 'active'),
  ('CC[C@H]1O[C@]2(CC[C@@H]1C)C[C@@H]1C[C@@H](C/C=C(\C)C[C@@H](C)/C=C/C=C3\CO[C@@H]4[C@H](O)C(C)=C[C@@H](C(=O)O1)[C@]34O)O2', 'active');

Now let's try a different one.
What was the test verdict on CC(C)OC(=O)c1cc2c(OCC(O)CNC(C)(C)C)cccc2[nH]1 (configuration not stated) ?
inactive

----------
- PROTOCOL SUMMARY: qHTS assay to identify small molecule antagonists of the estrogen related receptor (ERR) signaling pathway from Tox21 library - cell viability counter screen (AID 1224834); also: nearly all actives have a fitted effect of over 30% in size
- CONDITION SUMMARY: ERR reporter cells viability, CellTiter-Fluor, 17.5 h; series mostly up to 92.4 µM
Records with an inconclusive call do not appear. Calls of active or inactive are those of the source. Calls come from the whole dose curve; as a rule, active = well fitted cell-killing curve with a large enough effect in the repeat runs; inconclusive = weak or mixed curves; inactive = flat fitted curve, though single readings scatter.
Answer with one of the outcomes TRUE (active), FALSE (inactive)

Record excerpt, results attached:
INSERT INTO results (compound, class_label) VALUES
  ('CCC(Cl)C(Cl)C(Cl)CC(Cl)C(Cl)C(C)Cl (stereo not given)', 'FALSE'),
  ('Cc1cc(C2CCCCC2)n(O)c(=O)c1', 'TRUE'),
  ('C=CC(=O)OCCn1c(=O)n(CCOC(=O)C=C)c(=O)n(CCOC(=O)C=C)c1=O', 'TRUE'),
  ('CCCCCCCCCCCCCCCS(=O)(=O)Oc1ccccc1', 'FALSE');

Now let's try a different one.
What was the test verdict on `CC(C)(C)c1ccc(C(=O)CCCN2CCC(OC(c3ccccc3)c3ccccc3)CC2)cc1` ?
TRUE

----------
- PROTOCOL SUMMARY: qHTS assay to identify small molecule agonists of the androgen receptor (AR) signaling pathway in the presence of an antagonist - cell viability counter screen (AID 1259379); also: nearly all actives have a fitted effect of over 25% in size
- CONDITION SUMMARY: MDA-kb2 viability, CellTiter-Fluor, 16 h; series mostly up to 92.4 µM
- Description: National Center for Advancing Translational Sciences [NCATS] NIH Chemical Genomics Center [NCGC] U.S. Environmental Protection Agency [EPA] National Institutes of Environmental Health Sciences [NIEHS] National Toxicology Program [NTP] U.S. Food and Drug Administration [FDA] Androgen receptor (AR) is an important member of nuclear receptor family. Its signaling plays a critical role in AR-dependent prostate cancer and other androgen related diseases. […]
Results filed as inconclusive are left out. Calls of active or inactive are those of the source. Calls follow the shape of the dose curve; as a rule, active = well fitted cell-killing curve with a large enough effect in the repeat runs; inconclusive = weak or mixed curves, or effect the other way; inactive = flat fitted curve, though single readings scatter.
Answer with one of the outcomes active, inactive

INSERT INTO assay_data (structure_as_smiles, class_label) VALUES
  ('C=C(C)C(=O)OCC[N+](C)(C)C', 'inactive'),
  ('CSc1ccc(/C=C2/C(C)=C(CC(=O)O)c3cc(F)ccc32)cc1', 'inactive'),
  ('O=C(Nc1cccc(C(F)(F)F)c1)c1cc(Br)cc(Br)c1O', 'active'),
  ('Cc1cc(O)c(C(C)(C)C)cc1Sc1cc(C(C)(C)C)c(O)cc1C', 'active'),
  ('CCCCN(CCCC)c1ccc(C(=O)c2ccccc2C(=O)O)c(O)c1', 'inactive');

Now let's try a different one.
What was the test verdict on `CN(C)[C@@H]1C(=O)C(C(N)=O)=C(O)[C@@]2(O)C(=O)C3=C(O)c4c(O)ccc(Cl)c4[C@@H](O)[C@H]3C[C@@H]12` ?
inactive

----------
- PROTOCOL SUMMARY: qHTS assay for small molecule activators of the heat shock response signaling pathway - cell viability counter screen (AID 743209); also: nearly all actives have a fitted effect of over 50% in size; also: potency is read from the fitted curve at half-maximal effect
- CONDITION SUMMARY: HSE-bla HeLa viability, CellTiter-Glo luminescence, 5 h; series mostly up to 62.6 µM
Inconclusive results are not listed. Calls of active or inactive are those of the source. Calls follow the shape of the dose curve; as a rule, active = well fitted cell-killing curve with a large enough effect in the repeat runs; inconclusive = weak or mixed curves, or effect the other way; inactive = no such curve, though single readings can be large or run the other way.
PROPERTY: Potency

INSERT INTO assay_data (compound, result) VALUES
  ('Nc1ccc(N)c2ccccc12', '34.6 µM (active)'),
  ('CC(C)(C)C(=O)OCOC(=O)C1N2C(=O)CC2S(=O)(=O)C1(C)C (stereo not drawn)', 'inactive'),
  ('CCCCN1CCCC[C@H]1C(=O)Nc1c(C)cccc1C', 'inactive');

----------
- PROTOCOL SUMMARY: qHTS assay to identify small molecule agonists of the AP-1 signaling pathway - cell viability counter screen (AID 1159525); also: nearly all actives have a fitted effect of over 55% in size
- CONDITION SUMMARY: ME-180 (cervical carcinoma) AP-1-bla cells viability, ATP luminescence, 5 h; series mostly up to 76.8 µM
Results filed as inconclusive are left out. Calls of active or inactive are those of the source. Calls follow the shape of the full dose curve.
Answer with one of the outcomes label 1 for active, label 0 for inactive

INSERT INTO measurements (compound, class_label) VALUES
  ('Clc1ccc2n[nH]nc2c1', 'label 0'),
  ('CCOc1nc2cccc(C(=O)OC(C)OC(=O)OC3CCCCC3)c2n1Cc1ccc(-c2ccccc2-c2nn[nH]n2)cc1 (stereo not drawn)', 'label 1'),
  ('COc1cc(/C=C/C(=O)O[C@H]2CC[C@]34C[C@]35CC[C@]3(C)[C@@H]([C@H](C)CCC=C(C)C)CC[C@@]3(C)[C@@H]5CC[C@H]4C2(C)C)ccc1O', 'label 0'),
  ('CCC(Cl)C(Cl)C(Cl)CC(Cl)C(Cl)C(C)Cl (stereo not drawn)', 'label 0'),
  ('CC[C@@]1(O)C(=O)OCc2c1cc1n(c2=O)Cc2cc3c(CN(C)C)c(O)ccc3nc2-1', 'label 0');

Now let's try a different one.
What was the test verdict on `O=C(OCC(COC(=O)c1ccccc1)(COC(=O)c1ccccc1)COC(=O)c1ccccc1)c1ccccc1` ?
label 0
